target: T1, human immunoglobulin E (hIgE) (human, UniProt P01854-1 1-428); assay: competition ELISA, hIgE to hFcεRIα
T1 construct: also called human IgE; Native IgE (Abcam)
T1 sequence (P01854 whole entry): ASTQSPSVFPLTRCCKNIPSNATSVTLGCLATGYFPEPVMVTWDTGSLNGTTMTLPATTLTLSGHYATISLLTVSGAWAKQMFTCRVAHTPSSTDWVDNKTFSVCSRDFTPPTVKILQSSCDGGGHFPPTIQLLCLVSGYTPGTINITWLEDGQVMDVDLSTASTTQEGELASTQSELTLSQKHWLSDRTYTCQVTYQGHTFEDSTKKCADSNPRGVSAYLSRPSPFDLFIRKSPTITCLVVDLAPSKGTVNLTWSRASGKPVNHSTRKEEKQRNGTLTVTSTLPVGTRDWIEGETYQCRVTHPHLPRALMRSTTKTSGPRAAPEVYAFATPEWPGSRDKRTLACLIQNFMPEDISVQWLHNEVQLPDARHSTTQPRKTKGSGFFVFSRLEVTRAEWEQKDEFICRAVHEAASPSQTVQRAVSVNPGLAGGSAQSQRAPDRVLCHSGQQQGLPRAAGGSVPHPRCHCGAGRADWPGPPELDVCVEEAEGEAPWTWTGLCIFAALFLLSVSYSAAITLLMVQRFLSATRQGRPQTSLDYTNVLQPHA
pIC50: −log10 of the molar value.
recorded_metric: pIC50

binder	value_reported
Oma VH15W100b - VL3D28HS31H (antibody, V domains shown) VH: EVQLVESGGGLVQPGGSLRLSCAVSGYSITSGHRWEWIRQAPGKGLEWVASIHYDGSTNYNPSVKGRITISRDDSKNTFYLQMNSLRAEDTAVYYCARATHYFGHHHFAVWGQGTLVTVSS VL: DIQLTQSPSSLSASVGDRVTITCRASQSVDYHGDHYMNWYQQKPGKAPKLLIEWGSYLRSGVPSRFSGSGSGTDFTLTISSLQPEDFATYYCQQNAEDPYTFGQGTKVEIK	6.23
OmaVH15G55HW100b - VL3D28H (antibody, V domains shown, also called OmaVH15G55HW100b VL3D25H) VH: EVQLVESGGGLVQPGGSLRLSCAVSGYSITSGHRWEWIRQAPGKGLEWVASIHYDHSTNYNPSVKGRITISRDDSKNTFYLQMNSLRAEDTAVYYCARATHYFGHHHFAVWGQGTLVTVSS VL: DIQLTQSPSSLSASVGDRVTITCRASQSVDYHGDSYMNWYQQKPGKAPKLLIEWGSYLRSGVPSRFSGSGSGTDFTLTISSLQPEDFATYYCQQNAEDPYTFGQGTKVEIK	6.77
Oma VH15W100b - VL3D28H (antibody, V domains shown, also called Oma VH15W100b VL3D25H) VH: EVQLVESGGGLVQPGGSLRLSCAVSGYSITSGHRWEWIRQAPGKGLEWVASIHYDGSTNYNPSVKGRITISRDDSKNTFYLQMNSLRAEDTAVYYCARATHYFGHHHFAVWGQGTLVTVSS VL: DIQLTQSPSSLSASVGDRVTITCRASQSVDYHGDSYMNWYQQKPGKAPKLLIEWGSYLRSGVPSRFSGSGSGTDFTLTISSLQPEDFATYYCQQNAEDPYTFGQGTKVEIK	7.46

Values were extracted from patent US20220177604A1.
